Reference source for all entries: ChEMBL document CHEMBL5724914

# assay.comment: The drug is tested on Z-003 corresponding to pig gut metagenome with ENA study accession number: PRJEB37062 and ENA sample accession number: ERS12561803 for biotransformation under anaerobic condition. The drug concentrations were measured over 9 timepoints collected between 0 and 24 hours of incubation by liquid-chromatography-coupled mass spectrometry (LC–MS); further: call rule not given here
# condition.parameters: 2 µM
observable: Bacterial Biotransformation

Completed entries (count: 4):
CCOc1ccc2nc(S(N)(=O)=O)sc2c1 [ETHOXZOLAMIDE]; Compound NOT metabolized
COc1cc2nc(N3CCN(C(=O)C4CCCO4)CC3)nc(N)c2cc1OC (stereo not drawn) [TERAZOSIN]; Compound NOT metabolized
CC1=C(CC(=O)O)c2cc(F)ccc2/C1=C\c1ccc([S+](C)[O-])cc1 (stereo not drawn); Compound NOT metabolized
CCN(CC)CCNC(=O)c1ccc(NC(C)=O)cc1 [ACECAINIDE]; Compound NOT metabolized

If you can, please state the reported Bacterial Biotransformation value of CCOc1cc(CC(=O)N[C@@H](CC(C)C)c2ccccc2N2CCCCC2)ccc1C(=O)O [REPAGLINIDE] . Compound metabolized

Also CC#C[C@]1(O)CC[C@H]2[C@@H]3CCC4=CC(=O)CCC4=C3[C@@H](c3ccc(N(C)C)cc3)C[C@@]21C [MIFEPRISTONE] , if possible. Compound metabolized

And then COc1ccnc(C[S+]([O-])c2nc3ccc(OC(F)F)cc3[nH]2)c1OC (stereo not drawn) [PANTOPRAZOLE] , what is it? Compound NOT metabolized

Now give it for CC(C)C[C@H]1C(=O)N2CCC[C@H]2[C@]2(O)O[C@](NC(=O)[C@@H]3C=C4c5cccc6[nH]c(Br)c(c56)C[C@H]4N(C)C3)(C(C)C)C(=O)N12.CS(=O)(=O)O [BROMOCRIPTINE MESYLATE] too. Compound metabolized

---

# assay.comment: The drug is tested on WLS-098 corresponding to human gut metagenome with ENA study accession number: PRJEB37062 and ENA sample accession number: ERS12561754 for biotransformation under anaerobic condition. The drug concentrations were measured over 9 timepoints collected between 0 and 24 hours of incubation by liquid-chromatography-coupled mass spectrometry (LC–MS)
# condition.parameters: 2 µM
observable: Bacterial Biotransformation

CCCN(CCC)CCc1cccc2c1CC(=O)N2; Compound metabolized
COc1ccc([C@@H]2Sc3ccccc3N(CCN(C)C)C(=O)[C@@H]2OC(C)=O)cc1; Compound metabolized
CCOC(=O)C1=C[C@]2(CC)CCCN3CCc4c(n1c1ccccc41)[C@@H]32; Compound metabolized
CC(C)c1nc(N(C)S(C)(=O)=O)nc(-c2ccc(F)cc2)c1/C=C/[C@@H](O)C[C@@H](O)CC(=O)[O-].CC(C)c1nc(N(C)S(C)(=O)=O)nc(-c2ccc(F)cc2)c1/C=C/[C@@H](O)C[C@@H](O)CC(=O)[O-].[Ca+2]; Compound metabolized
CC(C)(C)NCC(O)COc1cccc2c1CC(O)C(O)C2 (stereo not drawn); Compound metabolized

What Bacterial Biotransformation value was documented for this compound, CC[C@H](C)C(=O)O[C@H]1CCC=C2C=C[C@H](C)[C@H](CC[C@@H]3C[C@@H](O)CC(=O)O3)[C@H]21 ? Compound NOT metabolized

// same read-out, input: COc1ccc(/C=C/C(=O)Nc2ccccc2C(=O)O)cc1OC Compound metabolized

Now this one: CCc1cccc2c3c([nH]c12)C(CC)(CC(=O)O)OCC3 (stereo not drawn) Compound metabolized

Follow-up entry: O=C1C(CC[S+]([O-])c2ccccc2)C(=O)N(c2ccccc2)N1c1ccccc1 (stereo not drawn) Compound metabolized

Entry to check: CC(C)(C)NCC(O)c1cc(Cl)c(N)c(Cl)c1 (stereo not drawn) Compound NOT metabolized

Do the same for COc1ccc2cc([C@H](C)C(=O)O)ccc2c1 please Compound metabolized

Next compound up: CC(=O)Oc1ccc(C(c2ccc(OC(C)=O)cc2)c2ccccn2)cc1 Compound metabolized
